# Test details: Toxicity liver stage against HepG2, at 10uM
# Format: cell-based
# Set-up: test concentration 10 uM, cell line HepG2-A16-CD81EGFP
# Measurement parameters: human, HepG2-A16-CD81EGFP cells; read-out: INHIBITION
Readout: cytotoxicity at 10 µM (%)
Write down the numeric answer in % and omit the unit.

input: Which cytotoxicity at 10 µM reading was recorded for the molecule `CC(C)n1cnnc1CNC(=O)c1cnc2ccccc2n1` ?
output: 7.01

input: Which cytotoxicity at 10 µM reading was recorded for the molecule CN(C)CC(=O)N1CCOCC2(C1)CN(c1ccccc1)C(=O)CO2 (centres undefined) ?
output: 0.00964

input: Which cytotoxicity at 10 µM reading was recorded for the molecule Cc1cc(C)n(CC2CN(CC(=O)NCc3ccccn3)CCO2)n1 (centres undefined) ?
output: -5.07

input: Which cytotoxicity at 10 µM reading was recorded for the molecule O=C(C1CCCO1)N1CCCC2(CCN(c3cccnc3)CC2)C1 (centres undefined) ?
output: 2.68

====

# Test details: Toxicity liver stage against HepG2, at 10uM
# Format: cell-based
# Parameters: test concentration 10 uM, cell line HepG2-A16-CD81EGFP
# Measurement parameters: human, HepG2-A16-CD81EGFP cells; read-out: INHIBITION
Readout: cytotoxicity at 10 µM (%)
Write down the numeric answer in % and omit the unit.

input: Which cytotoxicity at 10 µM reading was recorded for the compound CN(CCC(O)c1ccccc1)c1cc(C2CC2)ncn1 (centres undefined) ?
output: -141

input: Which cytotoxicity at 10 µM reading was recorded for the compound `Cc1ccccc1[C@@H]1CN(Cc2nc3ncccn3n2)C[C@H]1C(=O)O` ?
output: -6.55

input: Which cytotoxicity at 10 µM reading was recorded for the compound `COc1cccc(-c2ncc(CN3CC[C@H](CO)[C@@H](O)C3)s2)c1` ?
output: 4.23

input: Which cytotoxicity at 10 µM reading was recorded for the compound CCN1CCCC(C)(C(=O)NCCCc2nc(C)cs2)C1 (centres undefined) ?
output: 1.54

input: Which cytotoxicity at 10 µM reading was recorded for the compound Cc1cnc(N2CCC3(CCC(C(=O)NC(C)C)C3)CC2)nc1 (centres undefined) ?
output: -0.603

input: Which cytotoxicity at 10 µM reading was recorded for the compound O=C(c1nccc2ccccc12)N1CCCCC1Cn1cccn1 (centres undefined) ?
output: -4.31

input: Which cytotoxicity at 10 µM reading was recorded for the compound Cc1cnn(CC2CCCCN2CCn2cncn2)c1 (centres undefined) ?
output: 6.26

input: Which cytotoxicity at 10 µM reading was recorded for the compound O=C(NCC(=O)N1CCCC(n2cncn2)C1)OCc1ccccc1 (centres undefined) ?
output: -13.5

input: Which cytotoxicity at 10 µM reading was recorded for the compound CCC(C)(C)C(=O)N1CCN(C2=NCC(C)S2)CC1 (centres undefined) ?
output: -144

====

For each record, write down the corresponding cytotoxicity at 10 µM.
# Test details: Toxicity liver stage against HepG2, at 10uM
# Assay type: cell-based
# Set-up: test concentration 10 uM, cell line HepG2-A16-CD81EGFP
# Measurement parameters: human, HepG2-A16-CD81EGFP cells; read-out: INHIBITION
I'd appreciate it if you wrote the number followed by its unit.

input: Which cytotoxicity at 10 µM reading was recorded for the molecule `C[C@@H]1CN(Cc2nc(C(N)=O)no2)CC[C@@]1(O)C1CCOCC1` ?
output: -38.5%

input: Which cytotoxicity at 10 µM reading was recorded for the molecule `COc1ccc(C)cc1NC(=O)Nc1cnc(N2CCN(C)CC2)nc1` ?
output: 5.06%

input: Which cytotoxicity at 10 µM reading was recorded for the molecule CCC(CO)NC(=O)c1cc(COc2ccc(OC)cc2Cl)[nH]n1 (stereo not drawn) ?
output: 2.2%

input: Which cytotoxicity at 10 µM reading was recorded for the molecule `c1cn(Cc2nnc(C3CCN(C4CCCCC4)CC3)n2C2CC2)cn1` ?
output: -6.79%

input: Which cytotoxicity at 10 µM reading was recorded for the molecule Cn1cnnc1C1CCCN(C(=O)NCCNc2ccccn2)C1 (stereo not drawn) ?
output: 2.21%

input: Which cytotoxicity at 10 µM reading was recorded for the molecule `O=C(NCc1ccccn1)[C@@H]1COC[C@H]2CNC[C@H]21` ?
output: 11.2%

input: Which cytotoxicity at 10 µM reading was recorded for the molecule Cc1cnc2n(c1=O)C(CC(=O)NCc1ccc(Cl)cc1)CS2 (stereo not drawn) ?
output: -5.55%

input: Which cytotoxicity at 10 µM reading was recorded for the molecule O=C(CN1CCCC1COc1ccccc1)NCc1ccccn1 (stereo not drawn) ?
output: -0.764%

input: Which cytotoxicity at 10 µM reading was recorded for the molecule `Cc1cc(N(C)Cc2ncc[nH]2)nc(-c2ccccc2)n1` ?
output: 1.68%

input: Which cytotoxicity at 10 µM reading was recorded for the molecule CCn1ncnc1C1CC(=O)NCc2nc(N3CCCC3)sc21 (stereo not drawn) ?
output: -2.4%

input: Which cytotoxicity at 10 µM reading was recorded for the molecule `CNC(=O)c1noc(Cn2ncc3ccccc3c2=O)n1` ?
output: -5.35%

input: Which cytotoxicity at 10 µM reading was recorded for the molecule `Cc1cc(N2CCc3c(ncn3C)C2)n2nc(C(F)(F)F)nc2n1` ?
output: 4.11%

input: Which cytotoxicity at 10 µM reading was recorded for the molecule `COc1ccccc1CC(=O)N1CCC(OCc2cccnc2)CC1` ?
output: 4.87%

input: Which cytotoxicity at 10 µM reading was recorded for the molecule `CC(C)(C)C(=O)N1CCCc2c(cnn2-c2ccccc2)C1` ?
output: 7.15%

input: Which cytotoxicity at 10 µM reading was recorded for the molecule O=C(NCCCc1cccs1)N1CCCCC1CCO (stereo not drawn) ?
output: 6.06%

input: Which cytotoxicity at 10 µM reading was recorded for the molecule CCCN1CCC2(C1)c1ccccc1S(=O)(=O)N2Cc1ccc(F)cc1 (stereo not drawn) ?
output: 18.3%

input: Which cytotoxicity at 10 µM reading was recorded for the molecule `Cn1nc(-c2ccccc2)c(Cl)c1C(=O)O` ?
output: -45%

input: Which cytotoxicity at 10 µM reading was recorded for the molecule CC(=O)N1CCCC1(C(=O)N1CCCC1)c1cnccn1 (stereo not drawn) ?
output: 0.142%

input: Which cytotoxicity at 10 µM reading was recorded for the molecule `CCO[C@H]1CC[C@H]2[C@@H]1OCCN2C(=O)COc1ccccc1` ?
output: -88.5%

input: Which cytotoxicity at 10 µM reading was recorded for the molecule `O=S(=O)(NCc1ccc(S(=O)(=O)N2CCCC2)s1)c1ccc(Cl)c(Cl)c1` ?
output: -41.8%

input: Which cytotoxicity at 10 µM reading was recorded for the molecule `CN1CC2(CCN(Cc3cccnc3)CC2)c2cccc(F)c21` ?
output: 10.7%

input: Which cytotoxicity at 10 µM reading was recorded for the molecule `Cc1cc(C(=O)N2C[C@H]3CCC[C@@]3(CO)C2)c2ccc(F)cc2n1` ?
output: 5.78%

input: Which cytotoxicity at 10 µM reading was recorded for the molecule `CC(C)CN1C[C@@H]2C(=O)N(C)C3(CCN(C(=O)C(C)C)CC3)[C@@H]2C1` ?
output: 6.88%

input: Which cytotoxicity at 10 µM reading was recorded for the molecule `CC(=O)N1CCC(N2CC[C@H](c3nc4cc(C)ccc4o3)C2)CC1` ?
output: 2.84%

input: Which cytotoxicity at 10 µM reading was recorded for the molecule COCCOCC1(CNCc2ccc(OC)cc2)C[C@@H](O)[C@@H](O)C1 (stereo partly drawn) ?
output: -7.46%

input: Which cytotoxicity at 10 µM reading was recorded for the molecule `Cc1noc(CN(Cc2cccc(C#N)c2)Cc2cccs2)n1` ?
output: 3.8%

input: Which cytotoxicity at 10 µM reading was recorded for the molecule `O=C1CN(Cc2cn(CC3CCN(C4CCSCC4)CC3)nn2)CCN1` ?
output: -48.2%

input: Which cytotoxicity at 10 µM reading was recorded for the molecule `O=C(NCc1ccncc1)N(Cc1ccc(F)cc1F)C1CC1` ?
output: 3.9%

input: Which cytotoxicity at 10 µM reading was recorded for the molecule Cc1nc(COCc2cnc3n2CCN(CC2CCC2)C3C)cs1 (stereo not drawn) ?
output: -5.63%

input: Which cytotoxicity at 10 µM reading was recorded for the molecule O=C(CN1CCCC1Cn1cncn1)Nc1ccc(Cl)cn1 (stereo not drawn) ?
output: -5.89%

input: Which cytotoxicity at 10 µM reading was recorded for the molecule `O=C(O)c1cc(S(=O)(=O)Nc2cccc3c2OCCO3)c(Cl)cc1F` ?
output: -7.08%

input: Which cytotoxicity at 10 µM reading was recorded for the molecule O=C(NCc1ccc(F)cc1)NCC(O)(c1ccco1)C1CC1 (stereo not drawn) ?
output: -115%

input: Which cytotoxicity at 10 µM reading was recorded for the molecule CC(C)N1CC2(CCCN(c3ccccn3)C2)CCC1=O (stereo not drawn) ?
output: -0.608%

====

# Test details: Toxicity liver stage against HepG2, at 10uM
# Type: cell-based
# Parameters: test concentration 10 uM, cell line HepG2-A16-CD81EGFP
# Measurement parameters: human, HepG2-A16-CD81EGFP cells; read-out: INHIBITION
For each record, write down the corresponding cytotoxicity at 10 µM.
Write down the numeric answer in % and omit the unit.

input: Which cytotoxicity at 10 µM reading was recorded for the compound Cc1nn(C)c(C)c1C1COCCN1C(=O)c1ccc(Cl)o1 (centres undefined) ?
output: 2.01

input: Which cytotoxicity at 10 µM reading was recorded for the compound `CS(=O)(=O)N1C[C@H]2CCC[C@@]2(COCC2CCOCC2)C1` ?
output: -0.173

input: Which cytotoxicity at 10 µM reading was recorded for the compound `CC(C)(NCc1cccc(C(N)=O)c1)c1ccc2c(c1)OCO2` ?
output: 3.15

input: Which cytotoxicity at 10 µM reading was recorded for the compound Cc1nc2n(n1)CC(Nc1ccnc(-c3ccccc3)n1)CC2 (centres undefined) ?
output: 3.43

input: Which cytotoxicity at 10 µM reading was recorded for the compound CC(C)SCc1cccc(NC2CCN(C)C2=O)c1 (centres undefined) ?
output: 1.26

input: Which cytotoxicity at 10 µM reading was recorded for the compound `CC(C)Sc1ncccc1C(=O)NCc1ccc(CS(C)(=O)=O)cc1` ?
output: 3.78

input: Which cytotoxicity at 10 µM reading was recorded for the compound `CN(C)C(=O)[C@@H]1CCO[C@@H]2CCN(CCc3ccccc3)C[C@@H]21` ?
output: -9.55

input: Which cytotoxicity at 10 µM reading was recorded for the compound `CC(=O)N1CCOC2(CCN(C(=O)C3CC3)CC2)C1` ?
output: -106

input: Which cytotoxicity at 10 µM reading was recorded for the compound CNC(=O)C(CC(C)C)NC(=O)c1cccc(-c2nc(C)cs2)c1 (centres undefined) ?
output: 14.5
